tested-system: acetylcholine receptor
assay-text: SPR, peptide at 10 uM over immobilized acetylcholine receptor
reported-metric: Binding affinity (RU)

> print(dat)
                binder  numeric.result
1   KWIYKR [6mer-2-91]             121
2  RWFYKK [6mer-2-135]             124
3  RGVCRK [6mer-2-104]             145
4  RLFQRK [6mer-2-134]             148

Recorded values, source patent US20250011363A1.
